Value source: patent US20240317841A1

- Target Under Test: H16 (Influenza A virus)
- Experiment: FACS, HA on mammalian cells; 2nd only 6.9
Measurement Name: % cells binding to HA (%)
// note: answer is a bare numeric in %

Previously resolved entries follow.
Binder | Readout Value
FHF11 (antibody, V domains shown) VH: QVQLQQSGPGLVKPSQTLSVTCGISGDSVSSHSAAWNWIRQSPSRGLEWLGRTYYRSKWYNDYAVSVKSRITINPDTSKNQFSLQLISVTPEDTAVYYCARVGAMTFGLLTGGMDVWGQGTTVTVSS VL: EIVLTQSPGTQSLSPGERATLSCRASQSLSRSYLAWYQQRPGKPPRLLIYGASSRATGIPDRFSGSGSGTDFSLTISSLEPEDSAMYFCQYYGDSPLFSFGPGTKVDIK | 20
FHF11v3 (antibody, V domains shown) VH: QVQLQQSGPGLVKPSQTLSVTCGISGDSVSSYSAAWNWIRQSPSRGLEWLGRTYYRSKWYNDYAVSVKSRITINPDTSKNQFSLQLISVTPEDTAVYYCARVGAMTFGLLTGGMDVWGQGTTVTVSS VL: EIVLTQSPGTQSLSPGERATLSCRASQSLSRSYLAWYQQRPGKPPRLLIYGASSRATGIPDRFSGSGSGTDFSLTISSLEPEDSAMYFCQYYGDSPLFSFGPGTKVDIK | 22
FHF11v9 (antibody, V domains shown) VH: QVQLQQSGPGLVKPSQTLSVTCGISGDSVSSYSAAWNWIRQSPSRGLEWLGRTYYRSGWYNDYAVSVKSRITINPDTSKNQFSLQLISVTPEDTAVYYCARVGAMTFGLLTGGMDVWGQGTTVTVSS VL: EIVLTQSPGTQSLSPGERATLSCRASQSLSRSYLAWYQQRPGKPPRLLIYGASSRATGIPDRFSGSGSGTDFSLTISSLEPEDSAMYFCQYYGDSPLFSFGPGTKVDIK | 13

Task item: Quick one: % cells binding to HA of FHF11v6 (antibody, V domains shown) VH: QVQLQQSGPGLVKPSQTLSVTCGISGDSVSSHSAAWNWIRQSPSRGLEWLGRTYYRSGWYNDYAVSVKSRITINPDTSKNQFSLQLISVTPEDTAVYYCARVGAMTFGLLTGGMDVWGQGTTVTVSS VL: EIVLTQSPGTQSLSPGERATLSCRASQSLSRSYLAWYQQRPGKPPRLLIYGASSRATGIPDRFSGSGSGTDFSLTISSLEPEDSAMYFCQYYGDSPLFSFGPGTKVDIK ?
Reply: 11
